- Tested on: OVCAR-5 ovarian
- testDescription: NCI tumour cell line growth inhibition, 48 h

{"smilesEntry": "COc1cc2c(cc1F)C(c1ccccc1Cl)=Nc1c(n[nH]c1C)N2", "GI50": "6.76 µM"}
{"smilesEntry": "FC(F)(F)c1cccc(-c2nn3ncccc3c2-c2ccnc(Nc3ccc4c(c3)OCCO4)n2)c1", "GI50": "> 25 µM"}
{"smilesEntry": "C[n+]1c2ccccc2nc2c(N)cc(N)cc21", "GI50": "> 100 µM"}
{"smilesEntry": "C[CH2][Hg][S]c1ccccc1C(=O)O", "GI50": "1.77 µM"}
{"smilesEntry": "Oc1cccc2c1NCCC2", "GI50": "4.35 µM"}
{"smilesEntry": "COc1cc(O)c2c(=O)c(OC)c(-c3ccc(OC)c(OC)c3)oc2c1", "GI50": "23 µM"}
